Tested on: NEK11;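 note: KINOMEscan kinase panel screen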
Condition Summary: concentration: 1 μM, replicates: in singlicate; n = 1
Task for the reader: assign each of the following compounds its reported %Inh.
Give bare numbers, in %.

{"Compound": "Nc1ncnc2c1ncn2-c1ccc(Cl)cc1", "%Inh (%)": 0}
{"Compound": "COc1cc(OC)cc(-c2cc3cnc(N)nc3nc2NC(=O)NC(C)(C)C)c1", "%Inh (%)": 0}
{"Compound": "Cc1nnc(-c2ccc3ncn(-c4ccc(S(C)=O)cc4)c3c2)o1 (stereo not drawn)", "%Inh (%)": 0}
{"Compound": "CCn1c(-c2nonc2N)nc2ccccc21", "%Inh (%)": 25}
{"Compound": "Cc1ccc(Oc2ccc(Nc3ncnc4cc[nH]c34)cc2C)cn1", "%Inh (%)": 0}

Give measured %Inh for every item shown.
1. COc1ccc(-c2cc3c(C)nc(N)nc3n([C@H]3CC[C@H](OCCO)CC3)c2=O)cn1
2. O=c1cc(N2CCOCC2)nc2n(Cc3ccc(F)c(Cl)c3)ccn12
3. COc1cc2ncn(-c3cc(OCc4ccc(S(C)(=O)=O)cc4)c(C(N)=O)s3)c2cc1OC
4. Cc1cccc(-c2nc(Nc3ccc4c(cnn4C)c3)c3ccccc3n2)n1

[0, 0, 14, 46]

Values compiled from paper PMC5540273.
